Reference source: patent US20250034594A1

- Test system: gene editing with dCas9
- procedure.summary: Screen of 322 new SSAP proteins, gene editing activity with dCas9 (Table 5)
- Format: cell-based
- test.conditions: normalized
endpoint.name: dCas9 with SSAP activity (normalized)
One number for each entry.

molecule	dCas9 with SSAP activity (normalized)
SSAP_279: SEQ ID NO: 448; Dorea sp. 42_8 (protein, listed as Dorea sp.) AVNNSLAKRDQSMKLSVYLQNDAVKKQINQVVGGKNGTRFISSIVSAVQSTPALQECTSPSIVNAALLGEALNLSPSPQLGQFYMVPFDNRKKGCKEAQFQLGYKGYIQLAERSGYYKKLNVLAIKEGELIRYDPLDEEIEVELIDDDVIREETPAMGYYAMFEYENGFCIQQKWRSEDFGTFRAGQNSGKGSLEVFFFLVQRF	−2.349

Please find the next molecule below.
Q: Which dCas9 with SSAP activity (normalized) value is on record for SSAP_263: SEQ ID NO: 432; Gulosibacter molinativorax (protein, Gulosibacter molinativorax) TDLTEKIATKAVAVKKDPKIADLMKSYEPQFARSLGKSMDAAKFGQDALTAIKQTPKLLEADQRSLFGAIFLAAQLKLPVGGPLAQFHLTPRKVAGEMTVVPIIGYNGYIQLAMNTGLYSKVGAFTVHANDHFRTGANSERGEFYDYERATGDRGELTGVIGYAKVKGFDESSFVYLDAATVRERHRPKFWDKTPWASDEGEMFRKTAIRVLQKYLPKSIEAAPLALAAQADQATVRRVDGVDDLQIDHEDIAIAEVIEDD ?
Ans: −0.685
